Consider the following molecules; for each one, report its Inhibition.
Test system: Cryptococcus neoformans
Conditions: Concentration 32 ug.mL-1; ASSAY_TEST Inhibition of Fungal Growth; detection method Resazurin; Absorption (OD600-OD570); plate type 384well; NBS; CORNING #3640
Description: Antifungal activity against Cryptococcus neoformans H99 ATCC 208821 (CO-ADD:FG_002); MIC in YNB media using NBS plates, by Resazurin OD(600-570)
Potency and affinity values are given separately.
Give bare numbers, in %.

Sample records with Inhibition:
molecule=Cc1ccc(Sc2nccn3c(=O)n(CC(=O)N4CCN(c5ccccc5F)CC4)nc23)c(C)c1 test_target="Cryptococcus neoformans" experimental_readout=Inhibition assay_value=-25.75
molecule=COC(=O)c1sccc1NC(=O)Cn1nc2c(Oc3ccccc3)nc3ccccc3n2c1=O test_target="Cryptococcus neoformans" experimental_readout=Inhibition assay_value=-16.14
molecule="CC1CC(C)CN(c2nccn3c(=O)n(CC(=O)Nc4cccc(C(F)(F)F)c4)nc23)C1 (centres undefined)" test_target="Cryptococcus neoformans" experimental_readout=Inhibition assay_value=-9.37
molecule=O=C(Cn1nc2nc(Nc3ccc(F)cc3)ccn2c1=O)N1CCCC1 test_target="Cryptococcus neoformans" experimental_readout=Inhibition assay_value=-8.71
molecule="Cc1ccc(C)c(NC(=O)Cn2nc3c(N4CCCC(C)C4)nccn3c2=O)c1 (centres undefined)" test_target="Cryptococcus neoformans" experimental_readout=Inhibition assay_value=-8.1
molecule=COc1cccc(-n2ccn3c(SCC(=O)c4ccc(C)cc4C)nnc3c2=O)c1 test_target="Cryptococcus neoformans" experimental_readout=Inhibition assay_value=-10.37
molecule=Cc1ccc(-n2ccn3c(=O)n(Cc4cccc(F)c4)nc3c2=O)cc1C test_target="Cryptococcus neoformans" experimental_readout=Inhibition assay_value=-14.54
molecule=COc1ccc(-c2cc3c4nnc(SCC(=O)Nc5ccccc5F)n4ccn3n2)cc1 test_target="Cryptococcus neoformans" experimental_readout=Inhibition assay_value=-26.1
molecule=O=C(Cn1nc2ccc(SC3CCCCC3)nn2c1=O)Nc1ccc2c(c1)CCC2 test_target="Cryptococcus neoformans" experimental_readout=Inhibition assay_value=-22.07
molecule=Cc1cccc(-c2nc(CSc3nc4ccccc4n4c(C(C)C)nnc34)c(C)o2)c1 test_target="Cryptococcus neoformans" experimental_readout=Inhibition assay_value=-24.07

Hi there! I need Inhibition for each item below, if you can.
1. CC(C)CCNC(=O)Cn1nc2n(Cc3ccco3)c(=O)c3sccc3n2c1=O
2. COC(=O)c1ccc(CN(c2cccc(C)c2)S(=O)(=O)c2cccn3c(C)nnc23)o1
3. Cc1ccc(-c2ccc3nn(CC(=O)N4CCN(c5ccc(F)cc5)CC4)c(=O)n3n2)cc1C

[reply]
1: -8.69; 2: -7.03; 3: -10.89

[ask] GET /values?readout=Inhibition&item= COc1ccc(NC(=O)Cn2nc3cc(C)nc(Nc4ccc(F)c(C)c4)n3c2=O)cc1
[reply] -7.34

----------
System: Cryptococcus neoformans
Conditions: Concentration 32 ug.mL-1; ASSAY_TEST Inhibition of Fungal Growth; detection method Resazurin; Absorption (OD600-OD570); plate type 384well; NBS; CORNING #3640
Measured potencies and affinities stand elsewhere.
EXPERIMENTAL READOUT: Inhibition
Quick note: number first, unit second.

Example entries and their recorded answers appear below.
smiles_entry=CCc1nnc2c(S(=O)(=O)N(Cc3ccc(OC)c(F)c3)c3ccccc3)cccn12 test_target="Cryptococcus neoformans" assay_value=-3.11%
smiles_entry=COc1ccc(C)cc1NC(=O)CSc1nc2ccccc2n2cnnc12 test_target="Cryptococcus neoformans" assay_value=-3.58%
smiles_entry=O=c1c2sccc2n2c(=O)n(Cc3ccccc3F)nc2n1Cc1cccs1 test_target="Cryptococcus neoformans" assay_value=-22.09%
smiles_entry=Cc1nnc2ccc(S(=O)(=O)N(Cc3ccccc3)c3ccc(Cl)cc3)cn12 test_target="Cryptococcus neoformans" assay_value=-6.05%
smiles_entry=Cc1cc2nn(CC(=O)Nc3cccc(C)c3C)c(=O)n2c(Nc2ccc(F)c(C)c2)n1 test_target="Cryptococcus neoformans" assay_value=-7.96%

Continue with the next molecule.
[ask] Fill blank: measured Inhibition of the molecule Cc1cccc(Oc2nc3ccccc3n3c(=O)n(CC(=O)Nc4ccc5c(c4)OCCO5)nc23)c1C is ____.
[reply] -31.77%
